- Target Or System: T1, HLA-DR DRB1*0401 (human)
- T1 chain 1: not shown
- T1 chain 2: not shown
- Experimental Details: radioligand inhibition, purified HLA-DR
- Condition: remark: other sources report otherwise
Reported Metric: pIC50
Remember, pIC50 is on a log scale: it is -log10 of the molar concentration.

Prompt: Identify pIC50 associated with the binder KELAVFREKVTEQHR [9019.0186]
Response: 7.68

The reported measurements were obtained from patent US20170342126A1.
